- measured on: ATM (Homo sapiens, UniProt Q13315)
- Construct: ATM protein was immunoprecipitated from HeLa cell nuclear extract; endogenous in cells
- Sequence (Q13315 whole entry): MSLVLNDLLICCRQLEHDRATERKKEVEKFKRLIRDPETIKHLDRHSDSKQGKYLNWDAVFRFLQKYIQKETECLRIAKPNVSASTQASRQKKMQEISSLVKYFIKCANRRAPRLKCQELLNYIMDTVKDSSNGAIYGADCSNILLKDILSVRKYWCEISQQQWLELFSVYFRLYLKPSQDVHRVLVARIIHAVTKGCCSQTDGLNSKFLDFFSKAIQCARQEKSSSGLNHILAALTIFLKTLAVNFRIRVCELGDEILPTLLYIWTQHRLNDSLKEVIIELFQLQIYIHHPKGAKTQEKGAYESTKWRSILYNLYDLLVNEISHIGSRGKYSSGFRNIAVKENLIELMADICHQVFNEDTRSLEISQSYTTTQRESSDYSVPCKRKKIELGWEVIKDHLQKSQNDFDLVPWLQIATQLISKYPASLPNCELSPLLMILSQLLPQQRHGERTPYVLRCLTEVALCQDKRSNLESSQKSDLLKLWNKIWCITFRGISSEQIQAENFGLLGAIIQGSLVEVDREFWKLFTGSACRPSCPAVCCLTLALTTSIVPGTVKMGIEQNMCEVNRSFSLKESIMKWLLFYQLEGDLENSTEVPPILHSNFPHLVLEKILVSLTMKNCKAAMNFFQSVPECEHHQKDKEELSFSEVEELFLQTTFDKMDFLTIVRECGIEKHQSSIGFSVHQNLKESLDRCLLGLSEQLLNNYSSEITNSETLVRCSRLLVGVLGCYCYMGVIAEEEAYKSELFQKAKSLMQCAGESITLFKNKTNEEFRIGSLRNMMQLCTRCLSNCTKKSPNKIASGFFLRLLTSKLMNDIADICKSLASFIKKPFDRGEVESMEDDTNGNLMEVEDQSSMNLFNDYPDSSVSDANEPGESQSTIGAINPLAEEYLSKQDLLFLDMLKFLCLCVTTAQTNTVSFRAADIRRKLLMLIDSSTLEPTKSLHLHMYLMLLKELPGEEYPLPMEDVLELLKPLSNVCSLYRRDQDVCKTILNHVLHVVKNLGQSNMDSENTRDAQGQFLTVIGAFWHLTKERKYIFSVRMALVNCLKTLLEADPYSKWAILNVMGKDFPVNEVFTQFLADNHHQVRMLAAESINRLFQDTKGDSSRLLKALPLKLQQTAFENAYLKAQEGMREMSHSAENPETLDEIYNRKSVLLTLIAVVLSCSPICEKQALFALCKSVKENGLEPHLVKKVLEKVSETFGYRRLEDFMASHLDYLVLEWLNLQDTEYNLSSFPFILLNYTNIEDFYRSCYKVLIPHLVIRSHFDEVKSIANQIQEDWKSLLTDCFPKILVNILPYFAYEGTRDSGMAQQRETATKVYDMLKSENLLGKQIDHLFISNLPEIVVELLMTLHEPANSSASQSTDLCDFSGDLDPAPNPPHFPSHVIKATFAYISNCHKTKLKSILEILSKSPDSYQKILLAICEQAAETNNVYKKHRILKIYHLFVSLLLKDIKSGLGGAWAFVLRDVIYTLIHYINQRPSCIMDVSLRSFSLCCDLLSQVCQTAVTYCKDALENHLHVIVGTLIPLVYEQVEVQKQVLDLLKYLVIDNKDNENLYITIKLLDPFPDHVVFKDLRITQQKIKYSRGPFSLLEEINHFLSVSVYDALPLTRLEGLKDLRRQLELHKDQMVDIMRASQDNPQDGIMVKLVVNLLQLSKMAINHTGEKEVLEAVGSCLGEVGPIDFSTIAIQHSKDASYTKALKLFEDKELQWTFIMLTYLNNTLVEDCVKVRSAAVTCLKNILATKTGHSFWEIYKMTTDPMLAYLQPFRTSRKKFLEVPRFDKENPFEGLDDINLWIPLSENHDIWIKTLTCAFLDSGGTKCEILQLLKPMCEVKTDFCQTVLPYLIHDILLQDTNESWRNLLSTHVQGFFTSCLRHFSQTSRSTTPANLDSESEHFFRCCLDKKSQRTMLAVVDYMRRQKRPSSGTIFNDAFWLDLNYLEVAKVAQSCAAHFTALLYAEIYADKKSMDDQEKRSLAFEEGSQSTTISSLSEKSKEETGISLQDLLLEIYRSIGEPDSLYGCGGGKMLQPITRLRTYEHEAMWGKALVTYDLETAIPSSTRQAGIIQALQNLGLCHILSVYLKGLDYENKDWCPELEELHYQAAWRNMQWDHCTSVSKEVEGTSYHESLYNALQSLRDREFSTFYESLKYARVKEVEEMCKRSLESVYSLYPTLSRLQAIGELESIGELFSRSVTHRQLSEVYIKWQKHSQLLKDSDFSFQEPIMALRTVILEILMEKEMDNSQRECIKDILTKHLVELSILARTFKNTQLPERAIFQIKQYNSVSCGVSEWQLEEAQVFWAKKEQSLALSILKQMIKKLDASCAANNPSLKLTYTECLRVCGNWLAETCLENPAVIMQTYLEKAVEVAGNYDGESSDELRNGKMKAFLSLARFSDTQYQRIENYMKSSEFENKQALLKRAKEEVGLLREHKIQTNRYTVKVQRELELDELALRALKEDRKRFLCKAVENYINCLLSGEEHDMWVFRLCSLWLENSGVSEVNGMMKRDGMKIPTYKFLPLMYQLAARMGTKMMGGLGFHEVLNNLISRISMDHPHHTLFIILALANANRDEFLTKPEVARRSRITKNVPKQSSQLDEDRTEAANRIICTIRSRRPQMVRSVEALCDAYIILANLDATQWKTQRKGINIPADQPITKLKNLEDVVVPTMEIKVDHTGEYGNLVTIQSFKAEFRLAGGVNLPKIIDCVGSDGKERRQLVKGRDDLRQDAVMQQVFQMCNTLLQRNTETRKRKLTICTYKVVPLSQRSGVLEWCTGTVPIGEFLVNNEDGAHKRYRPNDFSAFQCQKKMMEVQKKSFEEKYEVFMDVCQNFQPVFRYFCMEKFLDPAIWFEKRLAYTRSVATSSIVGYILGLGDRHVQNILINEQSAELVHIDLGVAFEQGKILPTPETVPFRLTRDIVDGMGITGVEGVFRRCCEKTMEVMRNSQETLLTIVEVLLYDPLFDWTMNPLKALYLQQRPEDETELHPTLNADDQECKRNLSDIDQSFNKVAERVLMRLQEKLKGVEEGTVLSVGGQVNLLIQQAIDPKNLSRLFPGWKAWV
- assay info: In vitro ATM inhibition assay (phosphorylation of GSTp53N66 on serine 15)
- Procedure: In vitro ATM inhibition Assays In order to assess the inhibitory action of the compounds against ATM in vitro, the following assay was used to determine IC50 values. ATM protein was immunoprecipitated from HeLa cell nuclear extract using rabbit polyclonal anti-sera raised to the C-terminal ˜500 amino-acid residues of the human ATM protein. […] Counts per second, following a one second counting time, were recorded for each reaction. […]
Measured IC50 accompanies every entry in the list below.

Example cases with answers are listed next.
- compound: "O=C(O)C1CC1C(=O)Nc1ccc2c(c1)Cc1cccc(-c3cc(=O)cc(N4CCOCC4)o3)c1S2 (stereo not drawn)"
  IC50: "< 200 nM"
- compound: "O=C(CN1CCNCC1)Nc1ccc2c(c1)Cc1cccc(-c3cc(=O)cc(N4CCOCC4)o3)c1S2"
  IC50: "< 200 nM"

Query block: What does the data say about its IC50? Entry: "COc1cc(C(=O)Nc2ccc3c(c2)Cc2cccc(-c4cc(=O)cc(N5CCOCC5)o4)c2S3)cc(OC)c1OC"
Result block: < 200 nM

Query block: What does the data say about its IC50? Entry: "CC(=O)Oc1cccc(C(=O)Nc2ccc(-c3cc(=O)cc(N4CCOCC4)o3)c3c2Cc2ccccc2S3)c1C"
Result block: < 200 nM

Query block: What does the data say about its IC50? Entry: "COc1ccc(CNCC(=O)Nc2ccc3c(c2)Cc2cccc(-c4cc(=O)cc(N5CCOCC5)o4)c2S3)cc1"
Result block: < 200 nM

Query block: What does the data say about its IC50? Entry: "COCC(=O)Nc1ccc2c(c1)Cc1cccc(-c3cc(=O)cc(N4CCOCC4)o3)c1S2"
Result block: < 200 nM

Query block: What does the data say about its IC50? Entry: "O=C(Nc1ccc2c(c1)Cc1cccc(-c3cc(=O)cc(N4CCOCC4)o3)c1S2)c1ccco1"
Result block: < 200 nM

Query block: What does the data say about its IC50? Entry: "O=C(CNCCCN1CCOCC1)Nc1ccc2c(c1)Cc1cccc(-c3cc(=O)cc(N4CCOCC4)o3)c1S2"
Result block: < 200 nM
